# assay.target: T1, Znf706 (Homo sapiens, UniProt Q9Y5V0 1-76)
# T1 sequence: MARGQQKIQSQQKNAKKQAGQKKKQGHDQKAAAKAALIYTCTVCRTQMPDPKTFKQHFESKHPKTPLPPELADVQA
# experiment.notes: fluorescence polarization; 100 mM KCl; range over all G4s; strong; exact value in figure; FP/anisotropy: 20 mM NaPi, 100 mM KCl, 0.05% NaN3, pH 7.4, 25 C (LiCl variant: 20 mM Tris-HCl, 100 mM LiCl, pH 7.4; NaCl variant: 20 mM NaPi, 100 mM NaCl, pH 7.4); NMR: 20 mM NaPi, 100 mM KCl, 7.5% D2O, pH 7.4, 4-50 C
# assay.context: protein: recombinant; tags: none (His6-SUMO cleaved); chain copies: 2; label: 5' 6-FAM; parallel G4
measured.attribute: Kd

{"binder": "AGGAGGGGGGCGGGA (structured_DNA) [Bcl2SH, 6-FAM]", "Kd": "~4.47 µM"}

Now consider a different binder.
Record TAGGGAGGGTAGGGAGGGT (structured_DNA) [cMyc (Pu19_A2A11), 6-FAM] , field Kd: ~4.47 µM
